Tested on: PPARg DBDmut IVT, anti-PPARg (DBD mutation: PPARg1 K132A/R137A, NR concentration 270 nM)
Assay: PBM binding z-score (relative to random genomic background probes); higher = stronger binding; sequences stand for … in GC…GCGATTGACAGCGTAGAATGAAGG
Classification scheme (PBM binding z-score): low end = under -0.3, middle = from -0.3 up to 2, high end = 2 and over

Query: GET /class?item= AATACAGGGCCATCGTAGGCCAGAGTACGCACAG
Result: middle

Query: # classify by PBM binding z-score band: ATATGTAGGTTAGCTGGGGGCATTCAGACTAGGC
Result: high end

Query: Hi, small favor: classify ACTAGCAGGCCAAGTTTGGGTTACTCAAACAAAG by its PBM binding z-score when you get a moment.
Result: low end

Query: # classify by PBM binding z-score band: GCGACTGGGGCATAAGCAGGTTACCATAACTTAA
Result: low end

Query: Into which category would you place CGAACTAGGTCAAGGACTGTGAATCTCCGCACGC ?
Result: middle

Query: Assign a category based on measured PBM binding z-score for GCATGTAGATCAAGGTTAAGAAAGACTAAGCTAA and give only the class name.
Result: low end

Query: Lab log: CAAACTAGGTCACCAGAAGGTCAAAGTCCGCATG — assign PBM binding z-score category
Result: high end

Query: // return the class label for CGGAGTAGGTTATGGGGCATTCAGGCAACGGTGA
Result: middle

Query: Class label required: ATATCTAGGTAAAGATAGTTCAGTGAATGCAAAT
Result: middle

Query: Exam item: assign CCTACTGGGCCACAGGTCATTGATTCCAATGCTC to the correct category.
Result: low end

---

Tested on: PXR homodimer (NR concentration 270 nM)
Test: PBM binding z-score (relative to random genomic background probes); higher = stronger binding; sequences stand for … in GC…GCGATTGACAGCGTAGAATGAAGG
quantity: PBM binding z-score
# output: bare number, no unit

The sequence identified as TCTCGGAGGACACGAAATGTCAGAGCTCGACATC registered its PBM binding z-score at -0.515

Sure, the documented PBM binding z-score for CGTCCAAGGTCATAGGAGGTTAGTGAAGACAGAT is 2.22

Briefly, PBM binding z-score measured for TCATATAGGTAATACAGGTGATAGTCGGCATCTA : 0.285

---

Tested on: VDR:RXRa (NR concentration 270 nM, RXRa partner concentration 90 nM)
Assay: PBM binding z-score (relative to random genomic background probes); higher = stronger binding; sequences stand for … in GC…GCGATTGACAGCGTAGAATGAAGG
quantity: PBM binding z-score
Answer field: number only, no words.

Record TCGAGTAGGTTAACAATGGGGCATTCAGCTTTCT has VDR:RXRa (NR concentration 270 nM, RXRa partner concentration 90 nM) PBM binding z-score equal to 0.406

Record CGTCCAAGGACAAGGTCAGTGAAAGAGACTCGAA ; system VDR:RXRa (NR concentration 270 nM, RXRa partner concentration 90 nM); PBM binding z-score = 1.54

Form field, PBM binding z-score with VDR:RXRa (NR concentration 270 nM, RXRa partner concentration 90 nM), item TGGAGTAGGTTAGTCGGGGCATTCAGCCAACATA : 2.43

Entry CCTGCTAGGTCATGTTCAGCTAATCTACAGTATG , VDR:RXRa (NR concentration 270 nM, RXRa partner concentration 90 nM) data, PBM binding z-score value: 1.48

With VDR:RXRa (NR concentration 270 nM, RXRa partner concentration 90 nM) as the test system, CAGCCTAGGTCAGGCCCAGTATAGGAGGAACGTT showed PBM binding z-score of -0.208

Form field PBM binding z-score for item CCGAGTAGGTTATGCGGCATTCAGGCAACGGTGA on VDR:RXRa (NR concentration 270 nM, RXRa partner concentration 90 nM): -0.251

Case ATCTCTAGGCAACCAAGTTCAGTGAATGCCGAAC , VDR:RXRa (NR concentration 270 nM, RXRa partner concentration 90 nM), PBM binding z-score recorded as 2.1

Summary: TCTTGTAGATCACCAGGTTAAGAAAGCTGGCCAA , VDR:RXRa (NR concentration 270 nM, RXRa partner concentration 90 nM), PBM binding z-score = 0.86

Reported VDR:RXRa (NR concentration 270 nM, RXRa partner concentration 90 nM) PBM binding z-score for item TTATATAGGTAAATGCTAGGTGAAAGTCCGATCT was 0.639

---

Test system: RARg:RXRa (NR concentration 270 nM, RXRa partner concentration 90 nM)
Assay: PBM binding z-score (relative to random genomic background probes); higher = stronger binding; sequences stand for … in GC…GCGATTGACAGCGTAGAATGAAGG
Records here are stratified by PBM binding z-score; strata: group 1: < 0.4; group 2: ≥ 0.4 and < 2; group 3: ≥ 2

Query: Which class does CCGAGTAGGTTATGGGGTATTCAGGCAACGGTGA fall in?
Result: group 2

Query: # classify by PBM binding z-score band: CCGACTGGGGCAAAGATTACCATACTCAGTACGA
Result: group 1

Query: Given TCAGACAGGAGAAGGTAACTCAGGTACGCAGTCG , name the class its PBM binding z-score places it in.
Result: group 1

Query: Which class is correct for the following sequence? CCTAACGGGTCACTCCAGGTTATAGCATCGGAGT
Result: group 3

Query: Into which bin does this sequence go? GCTATTAGTTGCAAGGGCAACCGAATGATTCTCG
Result: group 1

Query: # bin label for TCTTGTAGATCAAGCAGGTTGAGAAAGCCTGAGT
Result: group 1

Query: Which bin should I file CCAGACAGGCGAGAAGGTAACTCAGCCTCGATTA under?
Result: group 1

Query: Into which category would you place CATAAAGGGTCAGCTAGGCCAGAGTAGGGACGGC ?
Result: group 3

Query: GET /class?item= TCTTGTAGATCAACAGGAGGTTAAGATAGATCGA
Result: group 2

Query: Input CCGACTGGGGCGTAAGGTTACCATAAGCCAGCCC ; output its category
Result: group 2

Query: Kindly state the category for this sequence: CGAACTAGGTCAGAAAAGGACAGTGAAGGATGAT
Result: group 3

Query: Assign a category based on measured PBM binding z-score for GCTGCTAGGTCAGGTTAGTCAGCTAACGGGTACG and give only the class name.
Result: group 3

Query: For ACAGACAGGTGAGTGAAGGTAAGTCAGCTGGACG , which PBM binding z-score bin applies?
Result: group 2

Query: Which class holds GGAACGAGGGCAAAGTTGGTAGCATCTGTCGACG ?
Result: group 2

Query: # classify by PBM binding z-score band: CTACCAACGTGAACAAGGTCGTTGATTACTATTC
Result: group 2

Query: Class label required: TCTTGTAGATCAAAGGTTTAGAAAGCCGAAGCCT
Result: group 1

Query: Looking at TCGAGGAGGTTAGGGGCATTCAGAATGGCGTCGA , which class would you pick?
Result: group 2

Query: Which of the defined bands does the recorded PBM binding z-score of ACTAGCGGGCCAAGGGTCACTCAAGATTAGTCCG sit within?
Result: group 3

Query: Which class is correct for the following sequence? CGAACTAGGTCAAAGACAGTGAATCTCCGCACGC
Result: group 3

Query: # bin lookup: classify TCTTGTAGATAAAGCAGGTTAAGAAAGCCTGAGT by its PBM binding z-score
Result: group 1

Query: GET /class?item= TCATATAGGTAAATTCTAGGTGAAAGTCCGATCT
Result: group 2

Query: In plain terms, what class is ATCGAAAGGTCGAGGTGAGAATAGAGAAAGGGAA ?
Result: group 3

Query: For this sequence, which bin applies? CATACAGGCTCAGCTAGGCCAGAGTAGGGACGGC
Result: group 1

Query: // bin(item) where item = CCTACTGGGCCATCAGGTCGTTGATATCAACGTT
Result: group 1

Query: Hi, small favor: classify CCTAGCAGGCCAGGGTCGCTCAAGCATTTCGCTT by its PBM binding z-score when you get a moment.
Result: group 1

Query: # classify by PBM binding z-score band: ACTTACAGGTCAACGAGGTTATAGCACGCGTATA
Result: group 3

Query: Which class holds ACAGACAGGTGATGAATGTAACTCAGGCTATCAT ?
Result: group 1

Query: Sort into band: CCGACTGGGGCAGAAAGGTTACCCTACCATCCGG
Result: group 2

Query: Band for GGAACGAGGGCATTCGAGTTGATAGCCTGGCGAT ?
Result: group 2

Query: Which PBM binding z-score band matches ACAGACAGGTGATGAGGGTAACTCAGGCTATCAT ?
Result: group 1

Query: # bin label for CGATCTAGGTCAGAACAGGACAGTGAAGGATGAT
Result: group 3

Query: # classify by PBM binding z-score band: ATCTTTAGGTAAGACTCAGTTCAGTGAAGAACGC
Result: group 2

Query: Given TAGCCTAGGTCAGATCGGGCCAGTATACGCTATA , name the class its PBM binding z-score places it in.
Result: group 3

Query: Determine which band this sequence sits in: CGAACTAGGTCAAGGACAGTGAATCTCCGCACGC
Result: group 3

Query: Class? Entry: CGAACTATGTCATCCAGGACAGTGAATACATTGA
Result: group 2

Query: // bin(item) where item = CCGACTGGGGCAAAGGTTACAATACTCAGTACGA
Result: group 3

Query: Any idea which band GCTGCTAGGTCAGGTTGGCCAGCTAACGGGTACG is in?
Result: group 3

Query: Band for CAAACTAGGTCACAGAGGTCAGAGTCCGTGCGTA ?
Result: group 3

Query: Please report the category associated with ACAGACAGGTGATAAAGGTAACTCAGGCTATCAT , nothing else.
Result: group 1

Query: Which bin, given its PBM binding z-score, does CCTAGCAGGCAAATCTGGGTCACTCAAGGCTTGA occupy?
Result: group 2

Query: Hi there! Could you help me figure out the category for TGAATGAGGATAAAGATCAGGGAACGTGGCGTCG please?
Result: group 1

Query: Would you mind sorting CTCGAAAGGTCGTGCTCATGTGAGTATACCAAAC into the appropriate category?
Result: group 3

Query: Classify this sequence: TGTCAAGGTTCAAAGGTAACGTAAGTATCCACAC
Result: group 3

Query: Place this sequence in its band: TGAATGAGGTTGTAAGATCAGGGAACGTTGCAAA
Result: group 1

Query: Place this sequence in its band: TAGCGTAGGTCATTCAGGGGCCAGTATAGAAAGC
Result: group 3

Values compiled from the supplement of paper PMC6555819.
